# System: PSN1
# protocol-summary: Chemosensitivity, 96 h continuous exposure, MTT assay
# Type: cell-based, human
# assay-setup: IC50 MCF10A / IC50 PSN1
Output 1 for records whose Selectivity index (MCF10A) is lower than 100, 0 for records at or above 100.

compound: [Cu+2].[Cu+2].[Cu+2].c1ccc(-c2csc(NCCN(CCNc3nc(-c4ccccn4)cs3)CCNc3nc(-c4ccccn4)cs3)n2)nc1.c1ccc(-c2csc(NCCN(CCNc3nc(-c4ccccn4)cs3)CCNc3nc(-c4ccccn4)cs3)n2)nc1 [[L2Cu3]6+]
target-entity: PSN1
discrete-label: 1
--
compound: O=P(O)(O)Oc1ccccc1.[Zn+2].[Zn+2].[Zn+2].c1ccc(-c2csc(NCCN(CCNc3nc(-c4ccccn4)cs3)CCNc3nc(-c4ccccn4)cs3)n2)nc1.c1ccc(-c2csc(NCCN(CCNc3nc(-c4ccccn4)cs3)CCNc3nc(-c4ccccn4)cs3)n2)nc1 [[L2Zn3(O3POPh)]4+]
target-entity: PSN1
discrete-label: 0
--
compound: O=S(=O)(O)O.[Zn+2].[Zn+2].[Zn+2].c1ccc(-c2csc(NCCN(CCNc3nc(-c4ccccn4)cs3)CCNc3nc(-c4ccccn4)cs3)n2)nc1.c1ccc(-c2csc(NCCN(CCNc3nc(-c4ccccn4)cs3)CCNc3nc(-c4ccccn4)cs3)n2)nc1 [[L2Zn3(SO4)]4+]
target-entity: PSN1
discrete-label: 1
--
compound: O=P([O-])([O-])[O-].[Cu+2].[Cu+2].[Cu+2].c1ccc(-c2csc(NCCN(CCNc3nc(-c4ccccn4)cs3)CCNc3nc(-c4ccccn4)cs3)n2)nc1.c1ccc(-c2csc(NCCN(CCNc3nc(-c4ccccn4)cs3)CCNc3nc(-c4ccccn4)cs3)n2)nc1 [[L2Cu3(PO4)]3+]
target-entity: PSN1
discrete-label: 1
